// merged dataset of pIC50 values, system = High affinity nerve growth factor receptor (Homo sapiens, UniProt P04629), multiple refs
pIC50: −log10 of the molar value.

// below: answered compounds
CCOc1nn(-c2ccccc2)c(NC(=O)N[C@H]2CN(c3ccnn3C)C[C@@H]2c2ccccc2)c1C
> 7.00
C[C@@H]1CCOc2ccc(F)cc2[C@H]2CCCN2c2ccc3ncc(F)c(c3n2)N1
> 7.30
CCc1ccc(Nc2ccc(Cc3c[nH]c4ncnc(OC)c34)c(F)n2)cn1
> 8.00
Cc1c(C#Cc2cnc3ncccn23)cccc1C(=O)Nc1cc(CN2CCN(C)CC2)cc(C(F)(F)F)c1
6.00 to 7.00
Cc1ccc(Nc2ccc(Cc3c[nH]c4ncnc(C5CC5)c34)c(F)n2)cn1
> 7.00

Could you share what pIC50 was measured for `O=S(=O)(c1cc(F)cc(F)c1)c1ccc2[nH]nc(/C=C/c3ccccn3)c2c1` , tested on High affinity nerve growth factor receptor (Homo sapiens, UniProt P04629)?
8.92

Could you share what pIC50 was measured for `COCCN1C[C@@H](NC(=S)Nc2c(C)c(-c3ccc(=O)n(C)c3)nn2-c2ccccc2)[C@H](c2ccc(F)c(F)c2)C1` , tested on High affinity nerve growth factor receptor (Homo sapiens, UniProt P04629)?
> 7.00

Could you share what pIC50 was measured for `COCCN1C[C@@H](NC(=O)Nc2c(Cl)c(C3CCOCC3)nn2-c2ccccc2)[C@H](c2ccc(F)c(F)c2)C1` , tested on High affinity nerve growth factor receptor (Homo sapiens, UniProt P04629)?
> 7.00
